The measured values listed here are drawn from PubChem BioAssay (NCI).

# TGI per record follows
# Test system: NCI-H460 lung
# experiment: NCI tumour cell line growth inhibition, 48 h

# input Read the entry Nc1nc(Cl)cc(NCC2(CO)CC(CCCc3ccccc3)C2)n1 (centres undefined) and write its reported TGI.
# output > 100 µM

# input Read the entry N=C1/C(=C/c2ccco2)C(=O)N=C2SC=NN12 and write its reported TGI.
# output > 100 µM

# input Read the entry CCCCCCCCCCCCCCCCC(=O)NCC(=O)NCC(=O)NC(Cc1ccccc1)C(=O)Oc1ccc([N+](=O)[O-])cc1 (centres undefined) and write its reported TGI.
# output 38.6 µM

# input Read the entry NNC(=O)C(O)C(O)C(O)CO (centres undefined) and write its reported TGI.
# output > 100 µM

# input Read the entry CN1CCN2c3ccccc3CC(C#N)(C#N)C2C1 (centres undefined) and write its reported TGI.
# output > 100 µM

# input Read the entry Cc1cc(NCCCNc2ccnc3cc(Cl)ccc23)nc(Nc2ccc(C(=O)N3CCCCC3)cc2)n1 and write its reported TGI.
# output 7.63 µM

# input Read the entry NC(N)=NS(=O)(=O)c1ccc(NC(=O)c2cccn3c(=O)c4ccccc4nc23)cc1 and write its reported TGI.
# output > 100 µM

# input Read the entry CCCCCCCCCCCCCCC(C(=O)[O-])[n+]1ccccc1 (centres undefined) and write its reported TGI.
# output > 100 µM

# input Read the entry COc1ccc(C(=C(C#N)C#N)c2ccc(OC)cc2)cc1 and write its reported TGI.
# output > 100 µM

# input Read the entry COc1ccc2nc(-c3ccc(Cl)cc3)cc(-c3nnc(SCC(=O)Nc4ccc(/C(C)=N\O)cc4)o3)c2c1 and write its reported TGI.
# output 2.32 µM

# input Read the entry CCOC(=O)c1ccc(OCc2nc3cc(C(F)(F)F)ccc3nc2-c2ccccc2)cc1 and write its reported TGI.
# output > 100 µM

# input Read the entry CCCCN1C(=O)C2c3[nH]c4ccccc4c3C3CCCCC3C2C1=O (mixture of isomers) and write its reported TGI.
# output 31.2 µM

# input Read the entry CCOC(=O)CC[C@H](NC(=O)c1ccc(CNc2nc3cc(C(F)(F)F)ccc3nc2C(=O)OCC)cc1)C(=O)OCC and write its reported TGI.
# output 77.7 µM

# input Read the entry Cc1ccc(C(=O)Nc2ccc(CN3CCN(C)CC3)c(C(F)(F)F)c2)cc1C#Cc1cnc(N)c2ccc(C#N)cc12 and write its reported TGI.
# output 16.6 µM

---

# System: A549 NSCLC
# experiment: NCI tumour cell line growth inhibition, 48 h
outcome measure: TGI

# compound, TGI
data = [
    ("Cc1cccc(-c2cccc(COCc3cccc(-c4cccc(CO)n4)n3)n2)n1", "> 50 µM"),
    ("CC(C)(c1ccccc1)c1ccc(Oc2ccc3c(c2)-c2nc-3nc3[nH]c(nc4nc(nc5[nH]c(n2)c2ccc(Oc6ccc(C(C)(C)c7ccccc7)cc6)cc52)-c2cc(Oc5ccc(C(C)(C)c6ccccc6)cc5)ccc2-4)c2ccc(Oc4ccc(C(C)(C)c5ccccc5)cc4)cc32)cc1", "> 100 µM"),
    ("CCC1CCC2C3CC=C4CC(OC(C)=O)C(N)CC4(C)C3CCC12C (stereo not drawn)", "5.13 µM"),
]

# input Read the entry COc1ccc(-c2cc(=O)c3c(OC)c(O)c(OC)cc3o2)cc1 and write its reported TGI.
# output > 100 µM

# input Read the entry O=C1CC(C(O)C(O)C(O)CO)CC(=O)N1 (stereo not drawn) and write its reported TGI.
# output > 100 µM

# input Read the entry COc1ccc(/C=C/C(=O)c2c(-c3ccccc3)nn(C)c(=O)c2N2CCCC2)cc1 and write its reported TGI.
# output > 100 µM

# input Read the entry CN1C(=O)C(C)(C)NS1(=O)=O and write its reported TGI.
# output > 100 µM

# input Read the entry Cc1ccccc1NC(=O)N/C(N)=N/c1nc(C)c(C)s1 and write its reported TGI.
# output > 100 µM

# input Read the entry Cc1nc2ccccc2c(=O)n1Nc1ccc(C(=O)O)cc1 and write its reported TGI.
# output > 100 µM

# input Read the entry CCOP(=O)(OCC)c1cc2cc(O)ccc2oc1=O and write its reported TGI.
# output > 100 µM

# input Read the entry CCCCCCCC(=O)SCC/C=C/[C@@H]1CC(=O)NCc2cccc(n2)C2=N[C@@](C)(CS2)C(=O)N[C@@H](C(C)C)C(=O)O1 and write its reported TGI.
# output > 33.3 µM

# input Read the entry O=c1/c(=C/c2ccccc2O)sc2nc3ccccc3n12 and write its reported TGI.
# output > 100 µM

# input Read the entry COc1ccc(Nc2[nH]n(C3=Nc4ccccc4Sc4ccccc43)c(=O)c2C#N)cc1 and write its reported TGI.
# output > 100 µM

# input Read the entry CCCCC1CCCCCCc2[nH]c(/C=C3\N=C(c4ccc[nH]4)C=C3OC)cc21 (stereo not drawn) and write its reported TGI.
# output 0.0354 µM

# input Read the entry Cc1cc(C)nc(NS(=O)(=O)c2ccc(Nc3nc4nc(NCc5ccccc5)nc(-c5ccc(O)cc5)c4c(=O)[nH]3)cc2)n1 and write its reported TGI.
# output > 100 µM

# input Read the entry CC1OC1P(=O)(O)O (stereo not drawn) and write its reported TGI.
# output > 100 µM

# input Read the entry O=C(CC(C(=O)c1cccs1)c1ccsc1)c1ccc(Cl)cc1 (stereo not drawn) and write its reported TGI.
# output > 100 µM

# input Read the entry N=C1/C(=C/c2ccco2)C(=O)N=C2SC=NN12 and write its reported TGI.
# output > 100 µM

---

# TGI per record follows
# Test system: HL-60(TB) leukemia
# experiment: NCI tumour cell line growth inhibition, 48 h

# input Read the entry COc1ccc(-c2cnc(SCC(=O)c3c(C)n(C)n(-c4ccccc4)c3=O)n2-c2ccc(OC)cc2)cc1 and write its reported TGI.
# output > 50 µM

# input Read the entry c1cc2c(cc1NC1=NCCO1)CCCC2 and write its reported TGI.
# output 7.5 µM

# input Read the entry COc1ccc(C(=O)NNC(=O)c2nsc3ccccc23)cc1 and write its reported TGI.
# output 82.5 µM

# input Read the entry CC(=O)N(C(=O)CC(=O)NNCc1ccccc1Cl)c1ccc(Cl)cc1 and write its reported TGI.
# output > 10 µM

# input Read the entry NC(CCCNc1ccc(O)cc1)C(=O)O (configuration not stated) and write its reported TGI.
# output 58.3 µM

# input Read the entry C=C1CC(COc2ccc3c(C)c(Cl)c(=O)oc3c2)(c2ccccc2)OC1=O (configuration not stated) and write its reported TGI.
# output 1.42 µM

# input Read the entry CC(/C=C/c1ccccc1)=N\N=C(C)\C=C\c1ccccc1 and write its reported TGI.
# output > 100 µM

# input Read the entry N=C1/C(=C/c2ccco2)C(=O)N=C2SC=NN12 and write its reported TGI.
# output > 100 µM

---

# Tested on: EKVX NSCLC
# experiment: NCI tumour cell line growth inhibition, 48 h
# GI50 per record follows

Please review the following examples before continuing.
# smiles entry, target, GI50
rows = [
    ("Oc1ccccc1/C=N/Nc1nc2ccccc2s1", "EKVX NSCLC", "8.73 µM"),
    ("COc1cc(-c2nn(-c3ccc(NC(=O)Nc4ccc(Cl)c(C(F)(F)F)c4)cc3)cc2-c2ccncc2)ccc1Cl", "EKVX NSCLC", "1.1 µM"),
    ("Cc1cc(NCCCNc2ccnc3cc(Cl)ccc23)nc(Nc2ccc(C(=O)N3CCCCC3)cc2)n1", "EKVX NSCLC", "3.65 µM"),
    ("O=C1C2=C(C(=O)c3c(O)ccc(O)c31)N(c1cccnc1)Cc1ccccc1O2", "EKVX NSCLC", "1.18 µM"),
    ("Cc1cc(C)nc(NS(=O)(=O)c2ccc(Nc3nc4nc(NCc5ccccc5)nc(-c5ccc(O)cc5)c4c(=O)[nH]3)cc2)n1", "EKVX NSCLC", "35.1 µM"),
    ("O=c1ncc(I)c[nH]1", "EKVX NSCLC", "> 100 µM"),
]

# input Read the entry C[C@]12CC/C(=N\O)C[C@@H]1CC[C@@H]1[C@@H]2CC[C@]2(C)/C(=N/O)CC[C@@H]12 and write its reported GI50.
# output 44.6 µM

# input Read the entry C[C@@]1([C@H](OC(=O)c2cccc3ccccc23)C(N)=O)CO1 and write its reported GI50.
# output 4.53 µM

# input Read the entry COc1ccc(/C=C(/C(=O)N2CCN(c3ccc(C)cc3)CC2)c2cc(OC)c(OC)c(OC)c2)cc1N and write its reported GI50.
# output 0.628 µM

---

# Test system: NCI-H226 lung
# experiment: NCI tumour cell line growth inhibition, 48 h
outcome measure: TGI (µM)
Express it in µM; write the number only.

# input Read the entry C=C(c1ccc(OC)c(/C=C/C(=O)c2cc(OC)c(OC)c(OC)c2)c1)c1cc(OC)c(OC)c(OC)c1 and write its reported TGI.
# output 3.29

# input Read the entry O=S(Cc1cnc2ccccc2c1)c1nc2ccccc2nc1-c1cccs1 (stereo not drawn) and write its reported TGI.
# output 11.6

# input Read the entry CN(C)CCn1c2c(c3ccccc31)CCc1ccccc1-2 and write its reported TGI.
# output 26

# input Read the entry O=C1C2=C(C(=O)c3c(O)ccc(O)c31)N(c1cccnc1)Cc1ccccc1O2 and write its reported TGI.
# output 1.82

# input Read the entry SCc1ccc(-c2ccc(CS)cc2)cc1 and write its reported TGI.
# output 36.9

# input Read the entry CC[C@]12C=CCN3CC[C@@]4(c5ccc(OC)cc5N(C)[C@H]4[C@@](O)(C(=O)OC)[C@@H]1OC(=O)CCCC[P+](c1ccccc1)(c1ccccc1)c1ccccc1)[C@@H]32 and write its reported TGI.
# output 9.74
